Provide the reported T/C of each item.
- Test system: CD2F1 mice, L1210 leukemia ip, survival T/C
- EXPERIMENTAL_DETAILS: NCI In Vivo Anticancer Drug Screen. Data for tumor model L1210 Leukemia (intraperitoneal) in CD2F1 (CDF1) mice
- DETAILS: endpoint: mean survival time; dose: 400.0 mg/kg/injection; schedule: Q01DX009 (ip); vehicle: saline with Tween-80; higher = longer survival
Inconclusive results and toxic doses are left out.

Some compounds with recorded T/C:
CN(C)c1ccc(C(=O)c2ccc(N(C)C)cc2)cc1 = 109 % of control
COC(=O)c1ccc([N+](=O)[O-])cc1O = 97 % of control
Oc1c(CN2CCOCC2)cc(CN2CCOCC2)cc1CN1CCOCC1 = 100 % of control
O=P(c1ccccc1)(c1ccccc1)c1ccccc1 = 100 % of control

# batch: return T/C for each of the 8 compounds below
1. O=C1CCC(=O)N1Br
2. CCCCCCCCCCCCCCCc1cc(O)ccc1[N+](=O)[O-]
3. CCCCCCCCCCCCN(CN1C(=O)c2ccccc2C1=O)CN1C(=O)c2ccccc2C1=O
4. OC1CCCC/C1=C/C=C/c1ccccc1 (centres undefined)
5. Cc1c(Br)c(=O)[nH]c2ccccc12
6. CC(=O)CCC(C)=O
7. O=C(O)c1ccc(CC23CC4CC(CC(C4)C2)C3)cc1
8. CC1(C(=O)O)OC12CCCCC2 (centres undefined)

Reply:
1: 101 % of control; 2: 96 % of control; 3: 86 % of control; 4: 93 % of control; 5: 94 % of control; 6: 100 % of control; 7: 86 % of control; 8: 108 % of control

# batch: return T/C for each of the 2 compounds below
1. CCc1ccccc1NC(=O)Nc1ccc(N(C)C(C)=O)cc1
2. CCOc1ccc(-n2c(-c3ccc(Br)cc3)csc2=NC(=O)c2ccccc2F)cc1

Reply:
93 % of control
90 % of control

---

- Test system: CD2F1 mice, L1210 leukemia ip, survival T/C
- EXPERIMENTAL_DETAILS: NCI In Vivo Anticancer Drug Screen. Data for tumor model L1210 Leukemia (intraperitoneal) in CD2F1 (CDF1) mice
- DETAILS: endpoint: mean survival time; dose: 400.0 mg/kg/injection; schedule: Q01DX009 (ip); vehicle: Klucel (hydroxypropylcellulose) (HPC); higher = longer survival
Inconclusive results and toxic doses are left out.
MEASURED_QUANTITY: T/C

Some compounds with recorded T/C:
CC(C)(C)CC(C)(C)c1ccc(OCCOc2ccc(NS(=O)(=O)c3ccc(N)cc3)cc2)cc1 = 93 % of control
COc1cccc(CCC(=O)O)c1OC = 88 % of control
C[C@]12CCC(=O)C(O)=C1CC[C@@H]1[C@@H]2CC[C@]2(C)C(=O)CC[C@@H]12 = 97 % of control
O=C(O)CCCC1CCc2ccccc2C1 (stereo unspecified) = 97 % of control
Cc1c(C)c2c(c(C)c1O)CCC(C)(CCCC(C)CCCC(C)CCCC(C)C)O2 (stereo unspecified) = 98 % of control

Consider the record given below.
Ask: I would be grateful if you could share the reported T/C for Oc1c(Cl)cc(Cl)cc1CN(Cc1cc(Cl)cc(Cl)c1O)c1ccccc1 .
Reply: 94 % of control

---

- Tested on: CD2F1 mice, L1210 leukemia ip, survival T/C
- EXPERIMENTAL_DETAILS: NCI In Vivo Anticancer Drug Screen. Data for tumor model L1210 Leukemia (intraperitoneal) in CD2F1 (CDF1) mice
- DETAILS: endpoint: mean survival time; dose: 100.0 mg/kg/injection; schedule: Q04DX003 (ip); vehicle: Klucel (hydroxypropylcellulose) (HPC); higher = longer survival
Toxic doses and inconclusive results are not listed.
Provide the reported T/C of each item.

Some compounds with recorded T/C:
CC(=O)N(C(C)=O)c1ccc2[nH]c3c(N(C(C)=O)C(C)=O)cccc3c2c1 = 97 % of control
O=C/C=C/c1ccc([N+](=O)[O-])cc1 = 90 % of control
CN=C(Nc1ccc(OC)c2ccccc12)SC = 89 % of control
O=C(O/N=C(\CN1CCOCC1)c1ccc(Cl)cc1)c1ccccc1 = 86 % of control
[O-][n+]1onc2ccc(Cl)cc21 = 102 % of control

# batch: return T/C for each of the 2 compounds below
1. COCC/C(COC)=N\N=C(/CCOC)COC
2. O=C(O)CC1(Br)C(=O)Nc2ccccc21 (configuration not stated)

Reply:
102 % of control
98 % of control
